Data origin: ChEMBL document CHEMBL3102782

experiment notes: Tmax in human
Type: ADME, organism-based
condition: in vivo
metric name: Tmax (h)
Give the value, in units of h, as a plain number.

Returns the measured Tmax for the input compound. Input: Cc1nc(C)c(-c2ccc(C3CCC(CC(=O)O)CC3)cc2)nc1C(N)=O (stereo unspecified)
1
